Target: Dimer of Gag-Pol polyprotein [489-587] (Human immunodeficiency virus 1, UniProt P12497)
Construct: 489-587
Assay: Protease Inhibition Assay
Conditions: pH 5.5; 22 °C
Description: In the presence of HIV-l protease, the substrate is rapidly cleaved into two parts. The biotinylated amino terminal fragment binds to the avidin Pandex beads while the FITC-containing carboxy1 terminal fragment is removed through the membrane.
Some compounds, each annotated with its measured IC50.
# value in nM; strip the unit string

COMPOUND | ENDPOINT VALUE
CC(=O)N[C@H](CS(=O)(=O)c1cccc2cccnc12)C(=O)N[C@@H](Cc1ccccc1)[C@H](O)CN1C[C@H]2CCCC[C@H]2C[C@H]1C(=O)NC(C)(C)C | 1.7
CC(C)(C)NC(=O)[C@@H]1C[C@@H]2SCC[C@@H]2CN1C[C@@H](O)[C@H](Cc1ccccc1)NC(=O)[C@@H](CS(=O)(=O)c1cccc2cccnc12)NS(C)(=O)=O | 0.71
CC(C)(C)NC(=O)[C@@H]1C[C@@H]2CCCC[C@@H]2CN1C[C@@H](O)[C@H](Cc1ccccc1)NC(=O)[C@@H](C[S+]([O-])c1ccc(F)cc1)NS(C)(=O)=O (some centres undefined) | 0.6
CC(C)CN(C[C@@H](O)[C@H](Cc1ccccc1)NC(=O)[C@@H](CSc1ccc(F)cc1)NS(C)(=O)=O)C(=O)NC(C)(C)C | 85

Input line: Suppose we examine the compound `CC(C)(C)NC(=O)[C@@H]1C[C@@H]2SCC[C@@H]2CN1C[C@@H](O)[C@H](Cc1ccccc1)NC(=O)[C@@H](CS(=O)(=O)c1ccc(F)cc1)NS(C)(=O)=O` ; what IC50 value has been reported?
Output line: 0.22

====

Molecular target: Gag-Pol polyprotein [489-587] (Human immunodeficiency virus 1, UniProt P04585)
Construct: 489-587
Assay: Protease Inhibition Assay
Some molecules, each annotated with its measured pIC50.
Lab note — pIC50 values are minus log10 of concentrations in M.

CPD SMILES | pIC50
CC(C)(C)NC(=O)[C@@H]1C[C@@H]2SCC[C@@H]2CN1C[C@@H](O)[C@H](Cc1ccccc1)NC(=O)[C@@H](CS(=O)(=O)c1ccc(F)cc1)NS(C)(=O)=O | 9.66
CC(C)CN(C[C@@H](O)[C@H](Cc1ccccc1)NC(=O)[C@@H](CSc1ccc(F)cc1)NS(C)(=O)=O)C(=O)NC(C)(C)C | 7.07

Read the next record carefully.
Input line: Suppose we examine the molecule `CC(C)(C)NC(=O)[C@@H]1C[C@@H]2SCC[C@@H]2CN1C[C@@H](O)[C@H](CSc1ccccc1)NC(=O)[C@@H](CS(=O)(=O)c1ccc2ccccc2c1)NC(=O)C(F)(F)F` ; what pIC50 value has been reported?
Output line: 8.74

====

Molecular target: Gag-Pol polyprotein [489-587] (Human immunodeficiency virus 1)
Construct: 489-587
Assay: Protease Inhibition Assay
Field 'label' (enum: met / not met). Set to met when IC50 is strictly under 10 nM; else not met.

Some solved entries appear below for comparison.
CPD SMILES | CLASS LABEL
CC(C)(C)NC(=O)[C@@H]1C[C@@H]2CCCC[C@@H]2CN1C[C@@H](O)[C@H](Cc1ccccc1)NC(=O)[C@@H](CSc1ccc(F)cc1)NS(C)(=O)=O | not met
CC(=O)N[C@H](CS(=O)(=O)c1ccc2ccccc2c1)C(=O)N[C@@H](Cc1ccccc1)[C@H](O)CN1C[C@H]2CCS[C@H]2C[C@H]1C(=O)NC(C)(C)C | met
CC(C)(C)NC(=O)[C@@H]1C[C@@H]2SCC[C@@H]2CN1C[C@@H](O)[C@H](Cc1ccccc1)NC(=O)[C@@H](CS(=O)(=O)c1cccc2cccnc12)NS(C)(=O)=O | met

Turning now to a further record.
Input line: Lab note: confirm whether the reported IC50 for this molecule is below 10 nM, equality not counting. molecule: `CC(C)CN(C[C@@H](O)[C@H](Cc1ccccc1)NC(=O)[C@@H](CSc1ccc2ccccc2c1)NS(C)(=O)=O)C(=O)NC(C)(C)C`
Output line: not met

====

Target: Gag-Pol polyprotein [489-587] (Human immunodeficiency virus 1)
Construct: 489-587
Experiment: Protease Inhibition Assay
Some molecules, each annotated with its measured pIC50.
Lab note — pIC50 values are minus log10 of concentrations in M.

Worked cases, answers included:
MOLECULE | pIC50
CC(=O)N[C@H](CS(=O)(=O)c1ccc(F)cc1)C(=O)N[C@@H](CSc1ccccc1)[C@H](O)CN1C[C@H]2CCS[C@H]2C[C@H]1C(=O)NC(C)(C)C | 8.74
CC(=O)N[C@H](CS(=O)(=O)c1ccc2ccccc2c1)C(=O)N[C@@H](Cc1ccccc1)[C@H](O)CN1C[C@H]2CCCC[C@H]2C[C@H]1C(=O)NC(C)(C)C | 8.80
CC(C)(C)NC(=O)[C@@H]1C[C@@H]2CCCC[C@@H]2CN1C[C@@H](O)[C@H](Cc1ccccc1)NC(=O)[C@@H](C[S+]([O-])c1ccc2ccccc2c1)NS(C)(=O)=O (some centres not stated) | 9.40
CC(C)(C)NC(=O)[C@@H]1C[C@@H]2CCCC[C@@H]2CN1C[C@@H](O)[C@H](Cc1ccccc1)NC(=O)[C@@H](CS(=O)(=O)c1ccc2ccccc2c1)NS(C)(=O)=O | 9.30
CC(C)(C)NC(=O)[C@@H]1C[C@@H]2SCC[C@@H]2CN1C[C@@H](O)[C@H](Cc1ccccc1)NC(=O)[C@@H](CS(=O)(=O)c1cccc2cccnc12)NC(=O)C(F)(F)F | 9.68
CC(C)(C)NC(=O)[C@@H]1C[C@@H]2CCCC[C@@H]2CN1C[C@@H](O)[C@H](Cc1ccccc1)NC(=O)[C@@H](CSc1ccc2ccccc2c1)NS(C)(=O)=O | 8.29
CC(=O)N[C@H](CS(=O)(=O)c1cccc2cccnc12)C(=O)N[C@@H](Cc1ccccc1)[C@H](O)CN1C[C@H]2CCS[C@H]2C[C@H]1C(=O)NC(C)(C)C | 9.38
CC(C)(C)NC(=O)[C@@H]1C[C@@H]2CCCC[C@@H]2CN1C[C@@H](O)[C@H](Cc1ccccc1)NC(=O)[C@@H](C[S+]([O-])c1ccc(F)cc1)NS(C)(=O)=O (some centres not stated) | 9.22
CC(C)(C)NC(=O)[C@@H]1C[C@@H]2CCCC[C@@H]2CN1C[C@@H](O)[C@H](Cc1ccccc1)NC(=O)[C@@H](CS(=O)(=O)c1ccc(F)cc1)NS(C)(=O)=O [Saquinavir/Nelfinavir deriv.] | 8.70
CC(C)CN(C[C@@H](O)[C@H](Cc1ccccc1)NC(=O)[C@@H](C[S+]([O-])c1ccc2ccccc2c1)NS(C)(=O)=O)C(=O)NC(C)(C)C (some centres not stated) | 8.68

Input line: Suppose we examine the molecule `CC(=O)N[C@H](CS(=O)(=O)c1cccc2cccnc12)C(=O)N[C@@H](Cc1ccccc1)[C@H](O)CN1C[C@H]2CCCC[C@H]2C[C@H]1C(=O)NC(C)(C)C` ; what pIC50 value has been reported?
Output line: 8.77

Input line: Entry `CC(=O)N[C@H](CSCc1ccccc1)C(=O)N[C@@H](Cc1ccccc1)[C@H](O)CN1C[C@H]2CCCC[C@H]2C[C@H]1C(=O)NC(C)(C)C` please
Output line: 8.22

====

Molecular target: Dimer of Gag-Pol polyprotein [489-587] (Human immunodeficiency virus 1, UniProt P12497)
Construct: 489-587
Experiment: Protease Inhibition Assay
Details: pH 5.5; 22 °C
Some compounds, each annotated with its measured IC50.

COMPOUND | ENDPOINT VALUE
CC(C)(C)NC(=O)[C@@H]1C[C@@H]2SCC[C@@H]2CN1C[C@@H](O)[C@H](Cc1ccccc1)NC(=O)[C@@H](CS(=O)(=O)c1ccc2ccccc2c1)NS(C)(=O)=O | < 0.2 nM
CC(C)(C)NC(=O)[C@@H]1C[C@@H]2CCCC[C@@H]2CN1C[C@@H](O)[C@H](Cc1ccccc1)NC(=O)[C@@H](C[S+]([O-])c1ccc2ccccc2c1)NS(C)(=O)=O (some centres undefined) | 0.4 nM
CC(C)CN(C[C@@H](O)[C@H](Cc1ccccc1)NC(=O)[C@@H](CSc1ccc2ccccc2c1)NS(C)(=O)=O)C(=O)NC(C)(C)C | 50 nM
CC(=O)N[C@H](CS(=O)(=O)c1cccc2cccnc12)C(=O)N[C@@H](Cc1ccccc1)[C@H](O)CN1C[C@H]2CCS[C@H]2C[C@H]1C(=O)NC(C)(C)C | 0.42 nM
CC(=O)N[C@H](CS(=O)(=O)c1ccc(F)cc1)C(=O)N[C@@H](CSc1ccccc1)[C@H](O)CN1C[C@H]2CCS[C@H]2C[C@H]1C(=O)NC(C)(C)C | 1.8 nM
CC(C)(C)NC(=O)[C@@H]1C[C@@H]2CCCC[C@@H]2CN1C[C@@H](O)[C@H](Cc1ccccc1)NC(=O)[C@@H](CSc1ccc(F)cc1)NS(C)(=O)=O | 24 nM
CC(C)(C)NC(=O)[C@@H]1C[C@@H]2CCCC[C@@H]2CN1C[C@@H](O)[C@H](Cc1ccccc1)NC(=O)[C@@H](CS(=O)(=O)c1ccc(F)cc1)NS(C)(=O)=O [Saquinavir/Nelfinavir deriv.] | 2 nM
CC(=O)N[C@H](CSCc1ccccc1)C(=O)N[C@@H](Cc1ccccc1)[C@H](O)CN1C[C@H]2CCCC[C@H]2C[C@H]1C(=O)NC(C)(C)C | 6 nM
CC(C)(C)NC(=O)[C@@H]1C[C@@H]2CCCC[C@@H]2CN1C[C@@H](O)[C@H](Cc1ccccc1)NC(=O)[C@@H](CS(=O)(=O)c1ccc2ccccc2c1)NS(C)(=O)=O | 0.5 nM
CC(C)CN(C[C@@H](O)[C@H](Cc1ccccc1)NC(=O)[C@@H](CS(=O)(=O)c1ccc(F)cc1)NS(C)(=O)=O)C(=O)NC(C)(C)C | 10 nM

Input line: Suppose we examine the compound `CC(C)(C)NC(=O)[C@@H]1C[C@@H]2CCCC[C@@H]2CN1C[C@@H](O)[C@H](Cc1ccccc1)NC(=O)[C@@H](CSc1ccc2ccccc2c1)NS(C)(=O)=O` ; what IC50 value has been reported?
Output line: 5.1 nM

Each recorded value in this set is attributed to BindingDB's records for doi:10.7270/Q22F7KMG.
